# assay system: recombinant human PAI-1 (Homo sapiens, UniProt P05121)
# Construct: purchased Molecular Innovations, Inc
# Sequence (P05121 24-402): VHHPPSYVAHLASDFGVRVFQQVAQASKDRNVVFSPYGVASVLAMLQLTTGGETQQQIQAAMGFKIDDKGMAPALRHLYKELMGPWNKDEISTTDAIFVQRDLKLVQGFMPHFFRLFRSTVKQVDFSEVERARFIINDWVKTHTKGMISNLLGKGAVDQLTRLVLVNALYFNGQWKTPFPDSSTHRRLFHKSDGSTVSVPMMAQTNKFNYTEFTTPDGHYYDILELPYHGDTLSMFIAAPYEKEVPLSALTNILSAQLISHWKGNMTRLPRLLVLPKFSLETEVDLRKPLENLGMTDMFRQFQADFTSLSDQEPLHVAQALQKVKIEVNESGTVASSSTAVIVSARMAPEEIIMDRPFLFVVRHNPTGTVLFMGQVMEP
# test summary: Test Example 2: human PAI-1 inhibitory activity (tPA fluorogenic substrate, pH 7.4 HEPES buffer)
# Assay type: biochemical
IC50 for assorted compounds
Field format: number, assumed nM, no unit text.

Below: 5 compounds and their reported IC50.
compound="O=C(O)C(=O)N(CCCCc1ccccc1)c1cc(-c2ccc(OC(F)(F)F)cc2)ccc1OC1CCCCC1 [Compound 368]" experimental_endpoint=IC50 observed_value=450
compound="CCCCCOc1cc(-c2cccc(OC(F)(F)F)c2)ccc1N(CCCCc1ccccc1)C(=O)C(=O)O [Compound 393]" experimental_endpoint=IC50 observed_value=690
compound="CCCCCOc1ccc(-c2cccc(C(F)(F)F)c2)cc1N(CCCCc1ccccc1)C(=O)C(=O)O [Compound 378]" experimental_endpoint=IC50 observed_value=620
compound="CCCCCCCOc1ccc(N(CCCCc2ccccc2)C(=O)C(=O)O)cc1-c1ccc(OC(F)(F)F)cc1 [Compound 394]" experimental_endpoint=IC50 observed_value=220
compound="CCCCCOc1ccc(Oc2ccc(OC(F)(F)F)cc2)cc1N(CCCCc1ccccc1)C(=O)C(=O)O [Compound 363]" experimental_endpoint=IC50 observed_value=830

Consider the record given below.
Return reported IC50; argument: CCCCCOc1cc(-c2cccc(C)c2)ccc1N(CCCCc1ccccc1)C(=O)C(=O)O [Compound 376]
790

This collection of values is drawn from patent US8633245B2.
